System: RPMI-8226 leukemia
Assay: NCI-60 one-dose screen, 48 h (100 = growth as untreated, 0 = no growth, -100 = all killed)
Details: 10 µM unless noted
The panel holds about 83,000 compounds, 20% with a hit somewhere; the sample as a whole holds those more often.
assay.endpoint: growth (%)

compound	tgt	assay.endpoint	u	readout.number
O=C(O)CCCCCN1C(=O)/C(=C/c2ccc(O)c(O)c2)SC1=S	RPMI-8226 leukemia	growth	%	111
O=C1C2=C(C(=O)c3c(O)cccc31)C(c1ccco1)c1sc(=O)[nH]c1S2 (stereo unspecified)	RPMI-8226 leukemia	growth	%	18.7
Nc1cc(-c2c[nH]c3ccc(F)cc23)nc2cc(-c3c[nH]c4ccc(F)cc34)nn12	RPMI-8226 leukemia	growth	%	30.7
O=C1/C(=C/C2=Cc3ccccc3OC2)SC(=S)N1c1ccc(F)cc1	RPMI-8226 leukemia	growth	%	104
CSc1ccc2c(c1)N(C(=O)/C(C#N)=C/c1c[nH]c3ccccc13)c1ccccc1S2	RPMI-8226 leukemia	growth	%	21.3
COC(=O)C(Cc1ccccc1)NS(=O)(=O)/N=C1\NC(=O)NC1=C(Cl)Cl (stereo unspecified)	RPMI-8226 leukemia	growth	%	4.3
N[C@@H](Cc1cn(-c2ccnc3ccccc23)nn1)C(=O)O	RPMI-8226 leukemia	growth	%	106
OC1CCN(CCCOc2c3ccc(Cl)cc3nc3c2oc2ccccc23)CC1	RPMI-8226 leukemia	growth	%	-15.1
c1ccc(CNc2ncnc3ccc(-c4cnc5[nH]ncc5c4)cc23)cc1	RPMI-8226 leukemia	growth	%	60.8
COc1cc2cc(Oc3ccc(NC(=O)c4cccc(C(F)(F)F)c4)cc3)c(C)nc2cc1OCCN1CCCCC1	RPMI-8226 leukemia	growth	%	-10.4
Cc1cc2nc3c4cc(Cl)ccc4n(CC(=O)NCCN(C)C)c3nc2cc1C	RPMI-8226 leukemia	growth	%	-27.3
Clc1ccc2oc3c(NCCCn4ccnc4)c4ccccc4nc3c2c1	RPMI-8226 leukemia	growth	%	37.6
Cc1c(Nc2nnc(SCC(=O)Nc3sc4c(c3C#N)CCCC4)s2)c(=O)n(-c2ccccc2)n1C	RPMI-8226 leukemia	growth	%	96.7
CCOC(=O)c1c(Nc2ccccc2)nn2c(N)c(C#N)c(-c3ccc(OC)cc3)nc12	RPMI-8226 leukemia	growth	%	88.7
Cn1ccnc1C(=O)/C=C/c1ccc(NC(=O)Nc2ccccc2)cc1	RPMI-8226 leukemia	growth	%	8.95
N/C(=N\c1nc2c(Cl)cc(Cl)cc2s1)C(Cl)(Cl)Cl	RPMI-8226 leukemia	growth	%	15.4
COc1ccc(C(=O)/C=C/c2ccc(OCc3ccc(C)cc3)c(OC)c2)cc1OC	RPMI-8226 leukemia	growth	%	8.56
CNC(=O)c1cc(-c2ccc(NC(=O)Nc3ccc(N4CCN(C)CC4)c(C(F)(F)F)c3)cc2)nc2cccnc12	RPMI-8226 leukemia	growth	%	-35.8
CC(=NNc1ncnc2ccccc12)c1ccc(S(C)(=O)=O)cc1	RPMI-8226 leukemia	growth	%	98.6
Cn1c(SCC(=O)Nc2ccc(-c3nc4ccc([N+](=O)[O-])cc4[nH]3)cc2)nc2ccccc2c1=O	RPMI-8226 leukemia	growth	%	94.7
CN1C(=O)N(c2ccccc2)C2N=C(N/N=C/c3ccccc3)SC21 (stereo unspecified)	RPMI-8226 leukemia	growth	%	22.5
